// provenance: patent US20240051985A1

This listing pairs compounds with measured IC50.
Molecular target: FLT3 (Homo sapiens, UniProt P36888)
Sequence (P36888 27-993, species assumed): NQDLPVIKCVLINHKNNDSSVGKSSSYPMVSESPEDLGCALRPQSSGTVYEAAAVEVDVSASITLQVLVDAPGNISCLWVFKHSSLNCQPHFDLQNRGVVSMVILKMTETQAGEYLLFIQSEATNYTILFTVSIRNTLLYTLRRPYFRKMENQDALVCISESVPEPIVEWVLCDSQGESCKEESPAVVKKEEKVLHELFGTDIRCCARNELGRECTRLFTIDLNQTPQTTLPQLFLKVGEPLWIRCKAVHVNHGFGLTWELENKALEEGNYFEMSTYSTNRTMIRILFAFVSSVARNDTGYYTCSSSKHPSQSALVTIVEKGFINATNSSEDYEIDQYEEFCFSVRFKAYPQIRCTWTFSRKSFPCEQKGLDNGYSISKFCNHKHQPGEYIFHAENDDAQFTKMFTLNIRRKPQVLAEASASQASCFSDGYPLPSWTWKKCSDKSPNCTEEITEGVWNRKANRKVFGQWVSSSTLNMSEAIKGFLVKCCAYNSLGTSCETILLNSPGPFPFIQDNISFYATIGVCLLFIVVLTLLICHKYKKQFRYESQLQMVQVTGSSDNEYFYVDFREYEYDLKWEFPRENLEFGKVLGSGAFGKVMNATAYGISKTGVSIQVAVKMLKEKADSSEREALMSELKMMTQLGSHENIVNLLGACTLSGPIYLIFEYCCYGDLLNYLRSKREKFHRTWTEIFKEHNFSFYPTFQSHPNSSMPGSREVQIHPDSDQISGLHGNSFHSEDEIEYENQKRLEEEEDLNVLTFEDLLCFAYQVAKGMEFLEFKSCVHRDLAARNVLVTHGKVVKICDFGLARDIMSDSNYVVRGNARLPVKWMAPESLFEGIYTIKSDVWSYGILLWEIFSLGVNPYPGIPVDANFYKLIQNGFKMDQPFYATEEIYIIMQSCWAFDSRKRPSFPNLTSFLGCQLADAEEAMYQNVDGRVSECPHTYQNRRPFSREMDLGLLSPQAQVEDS
Assay: FLT3 Caliper assay
Format: biochemical
Conditions: Table 4; read-out: FLT3 Calipher assay IC50

Record request: IC50 value, item "Cn1ccc(-c2cn([C@@H]3O[C@H](C(=O)N[C@H]4CCc5nc(N)sc5C4)[C@@H](O)[C@H]3O)c3ncnc(N)c23)n1"
≥ 1000 nM

Could you do the same for "CNc1nc2ccc(NC(=O)[C@H]3O[C@@H](n4cc(-c5ccn(C)n5)c5c(N)ncnc54)[C@H](O)[C@@H]3O)cc2[nH]1" , please?
≥ 1000 nM

Could you do the same for "Cn1ccc(-c2cn([C@@H]3O[C@H](C(=O)N4CCNCC4)[C@@H](O)[C@H]3O)c3ncnc(N)c23)n1" , please?
≥ 1000 nM

Could you do the same for "Cn1ccc(-c2cn([C@@H]3O[C@H](C(=O)Nc4ccon4)[C@@H](O)[C@H]3O)c3ncnc(N)c23)n1" , please?
≥ 1000 nM

Could you do the same for "N#Cc1cn([C@@H]2O[C@H](C(=O)Nc3ccc4ccc(N5CCC5)nc4c3)[C@@H](O)[C@H]2O)c2ncnc(N)c12" , please?
100 to 1000 nM

====

Biological target: METTL3/METTL14 (Homo sapiens)
Sequence (Q86U44 whole entry, species assumed): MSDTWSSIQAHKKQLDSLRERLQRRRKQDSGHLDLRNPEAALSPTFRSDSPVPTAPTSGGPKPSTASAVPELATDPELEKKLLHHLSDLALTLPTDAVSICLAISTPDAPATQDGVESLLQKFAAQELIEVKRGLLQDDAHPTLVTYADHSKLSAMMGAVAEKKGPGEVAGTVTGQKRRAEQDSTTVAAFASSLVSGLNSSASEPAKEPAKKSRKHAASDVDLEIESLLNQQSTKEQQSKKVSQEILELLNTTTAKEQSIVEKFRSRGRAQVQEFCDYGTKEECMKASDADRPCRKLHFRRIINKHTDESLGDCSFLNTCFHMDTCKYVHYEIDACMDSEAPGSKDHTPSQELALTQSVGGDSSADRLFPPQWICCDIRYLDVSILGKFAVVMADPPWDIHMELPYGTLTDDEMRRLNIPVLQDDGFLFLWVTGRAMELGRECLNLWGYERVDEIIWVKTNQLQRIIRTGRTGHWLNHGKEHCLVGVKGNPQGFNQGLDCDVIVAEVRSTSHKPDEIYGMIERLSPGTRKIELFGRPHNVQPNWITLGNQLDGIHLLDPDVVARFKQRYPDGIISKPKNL
Sequence (Q9HCE5 whole entry partner, species assumed): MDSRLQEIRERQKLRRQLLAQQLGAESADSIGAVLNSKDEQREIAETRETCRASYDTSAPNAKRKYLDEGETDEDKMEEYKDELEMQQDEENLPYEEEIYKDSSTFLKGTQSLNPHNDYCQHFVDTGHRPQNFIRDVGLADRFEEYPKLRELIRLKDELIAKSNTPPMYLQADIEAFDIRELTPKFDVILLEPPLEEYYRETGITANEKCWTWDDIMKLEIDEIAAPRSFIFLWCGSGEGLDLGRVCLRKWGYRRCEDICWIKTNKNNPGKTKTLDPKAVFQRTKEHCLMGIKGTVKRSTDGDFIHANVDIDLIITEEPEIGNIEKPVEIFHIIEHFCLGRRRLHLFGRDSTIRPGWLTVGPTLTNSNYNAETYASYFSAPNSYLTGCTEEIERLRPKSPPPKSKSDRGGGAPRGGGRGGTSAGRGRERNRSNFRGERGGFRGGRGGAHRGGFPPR
Assay: METTL3-14 standard enzyme assay (3H-SAM flashplate)
Settings: Table 4; METTL3 biochemical assay
Protocol: METTL3-14 Standard Enzyme Assay Assays were performed in a 25 μl-volume in 384-well V-bottom polypropylene microplates (Greiner Bio-One, cat. No. 781280) at ambient temperature. […] Following two washing cycles with 0.1% Tween-20, the plates were sealed and read on a TopCount (PerkinElmer, Waltham, MA) plate-based scintillation counter. […]
pIC50: −log10 of the molar value.
measurement.name: pIC50

Recorded pIC50, per entry:
Cn1ccc(-c2cn([C@@H]3O[C@H](C(=O)Nc4ccncc4Cl)[C@@H](O)[C@H]3O)c3ncnc(N)c23)n1 [Compound I-122] :: 6.00 to 7.00
CN1CCC[C@@H](NC(=O)[C@H]2O[C@@H](n3cc(-c4ccn(C)n4)c4c(N)ncnc43)[C@H](O)[C@@H]2O)C1 [Compound I-46] :: ≤ 6.00
Cn1ccc(-c2cn([C@@H]3O[C@H](C(=O)Nc4cc(NC5CCC5)ncn4)[C@@H](O)[C@H]3O)c3ncnc(N)c23)n1 [Compound I-164] :: ≤ 6.00
Cn1ccc(-c2cn([C@@H]3O[C@H](C(=O)N4CCC[C@@H](C(N)=O)C4)[C@@H](O)[C@H]3O)c3ncnc(N)c23)n1 [Compound I-174] :: ≤ 6.00
Cn1ccc(-c2cn([C@@H]3O[C@H](C(=O)NCCCN4CCCC4=O)[C@@H](O)[C@H]3O)c3ncnc(N)c23)n1 [Compound I-129] :: 6.00 to 7.00
Cn1ccc(-c2cn([C@@H]3O[C@H](C(=O)NC(Cc4ccccc4)c4ccccc4)[C@@H](O)[C@H]3O)c3ncnc(N)c23)n1 (stereo partly shown) [Compound I-115] :: 6.00 to 7.00
Cn1ccc(-c2cn([C@@H]3O[C@H](C(=O)NCc4ccc(OC(F)(F)F)cc4)[C@@H](O)[C@H]3O)c3ncnc(N)c23)n1 [Compound I-84] :: ≤ 6.00
Cn1ccc(-c2cn([C@@H]3O[C@H](C(=O)NC4CCN(S(C)(=O)=O)CC4)[C@@H](O)[C@H]3O)c3ncnc(N)c23)n1 [Compound I-95] :: 6.00 to 7.00
Cc1cc(CNC(=O)[C@H]2O[C@@H](n3cc(-c4ccn(C)n4)c4c(N)ncnc43)[C@H](O)[C@@H]2O)no1 [Compound I-106] :: 6.00 to 7.00
CN1CC(NC(=O)[C@H]2O[C@@H](n3cc(-c4ccn(C)n4)c4c(N)ncnc43)[C@H](O)[C@@H]2O)C1 [Compound I-216] :: 6.00 to 7.00

Record request: pIC50 value, item CN1CCC(N(CC2CN(C)C2)C(=O)[C@H]2O[C@@H](n3cc(-c4ccn(C)n4)c4c(N)ncnc43)[C@H](O)[C@@H]2O)CC1 [Compound I-47]
≤ 6.00

Could you do the same for Cn1ccc(-c2cn([C@@H]3O[C@H](C(=O)N4CCC[C@@H](NS(C)(=O)=O)C4)[C@@H](O)[C@H]3O)c3ncnc(N)c23)n1 [Compound I-151] , please?
≤ 6.00

Could you do the same for Nc1ncnc2c1ccn2[C@@H]1O[C@H](C(=O)Nc2ccc3ccc(N4CCC4)nc3c2)[C@@H](O)[C@@H]1F [Compound I-34] , please?
7.00 to 8.00
